I'd appreciate it if you could supply pKi values for the items below.
Formally, pKi is defined as -log10 of the concentration c, with c in mol/L.

The observed pKi for C[N+](C)(CCCOc1ccccc1)Cc1cnc([C@@](O)(c2ccccc2)C2CCCCC2)o1 [MA1] when tested with human muscarinic receptors (M3) (Homo sapiens) stands at 8.03

The measured pKi that C[N+](C)(CCOCc1ccc(Cl)cc1)Cc1cnc([C@](O)(c2ccccc2)C2CCCCC2)o1 [MA6] showed for human muscarinic receptors (M3) (Homo sapiens) is 9.22

The compound C[N+](C)(CCCOc1ccccc1)Cc1cnc([C@](O)(c2ccccc2)C2CCCCC2)o1.[Br-] [MA2] on human muscarinic receptors (M3) (Homo sapiens): pKi was 9.70

###

Exercise: for every item that follows, state its recorded IC50.
# Study system: recombinant human adrenergic beta 1 receptors (Homo sapiens)
# Sequence (P08588 whole entry): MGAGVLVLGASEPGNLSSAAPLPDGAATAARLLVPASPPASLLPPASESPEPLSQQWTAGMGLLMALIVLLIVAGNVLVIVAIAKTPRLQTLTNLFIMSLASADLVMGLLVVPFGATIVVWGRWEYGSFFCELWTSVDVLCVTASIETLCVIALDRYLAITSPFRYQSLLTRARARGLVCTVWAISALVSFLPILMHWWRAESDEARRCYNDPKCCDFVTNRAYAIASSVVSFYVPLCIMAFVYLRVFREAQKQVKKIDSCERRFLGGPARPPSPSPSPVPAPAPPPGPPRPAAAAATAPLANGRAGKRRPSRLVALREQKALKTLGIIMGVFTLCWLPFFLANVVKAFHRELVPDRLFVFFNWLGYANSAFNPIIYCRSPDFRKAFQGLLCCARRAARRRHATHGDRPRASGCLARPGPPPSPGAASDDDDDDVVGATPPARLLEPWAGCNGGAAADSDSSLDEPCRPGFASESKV
# Protocol notes: Adrenergic β1 selectivity binding assay ([125I]-Iodocyanopindolol)
# Measurement parameters: inhibition of [125I]-Iodocyanopindolol binding; read-out: β1 bind p IC50
# Procedure: Membranes containing recombinant human adrenergic beta 1 receptors were obtained from Euroscreen. […] Assays were performed in U-bottomed 96-well polypropylene plates. […] Five washes with 250 μL wash buffer (50 mM HEPES, 1 mM EDTA, 120 mM NaCl, pH 7.4) were performed at 4° C. to remove unbound radioactivity. […] The plates were sealed (TopSeal A) and filter-bound radioactivity was measured with a scintillation counter (TopCount, Packard BioScience) using a 3-minute counting protocol. […]
Counter-ions that a name gives are not always drawn.

For this compound ( CCN(CC)CCN(CCNCCc1ccc(O)c2[nH]c(=O)sc12)C(=O)CCOCCc1cccc(Cl)c1 [BA2, dihydrobromide] ), measured IC50 is > 10 µM

GET /value?item= CCN(CC)CCN(CCNCCc1ccc(O)c2[nH]c(=O)sc12)C(=O)CCOCCc1cccc2ccccc12 [BA1, dihydrobromide] &field=IC50 returns > 10 µM

###

# Protocol notes: Gravimetric vapour sorption (GVS)
# Type: physicochemical
# Measurement parameters: at 80% RH, ambient temperature
Measure: GVS weight increase (% w/w)
Numbers only; they are read as % w/w.

Per the record, C[N+](C)(CCCOc1ccccc1)Cc1cnc([C@](O)(c2ccccc2)C2CCCCC2)o1.[Br-] [MA2 Crystalline Form A] has GVS weight increase of 0.8

Entry C[N+](C)(CCCOc1ccccc1)Cc1cnc([C@](O)(c2ccccc2)C2CCCCC2)o1 [MA7 Form 2] ; GVS weight increase = 0.7

C[N+](C)(CCCOc1ccccc1)Cc1cnc([C@](O)(c2ccccc2)C2CCCCC2)o1 [MA7 Form 3] has a reported GVS weight increase of 3.0

Form field GVS weight increase, entry C[N+](C)(CCCOc1ccccc1)Cc1cnc([C@](O)(c2ccccc2)C2CCCCC2)o1 [MA7 Form 1] : 3.1
